Below, each of the binders is paired with its reported SPOT peptide array binding signal intensity value.
# assay-system: SpAbp1-D1
# procedure-details: SPOT peptide array binding signal intensity (averaged, normalized) (arbitrary units (background-subtracted, floor 0; scale differs between SH3 domains)); higher = stronger binding of the SH3 domain to the peptide
Keep it simple and answer with nothing but the number.

# annotated cases, reported SPOT peptide array binding signal intensity shown
> print(dat)
            binder  observed
1  LLRRTIPKRPFYHVL       402
2  YSRKKLPVVLSKMTL       243
3  VAPPPLPNRQLPNLD         8

Please fill in: SPOT peptide array binding signal intensity reported for MARRRLPDRPPNGIG = 1340
